# protocol.description: Measurement of solubility in water, octanol saturated water and water saturated octanol
# test.parameters: log solubility ratio, 25° C.
Classify by measured logSR (Swo/Sow): y if it is equal to or exceeds -0.5, n if it is smaller.

compound	class
CC(=O)Oc1ccccc1C(=O)[O-].CC(=O)Oc1ccccc1C(=O)[O-].CC(=O)Oc1ccccc1C(=O)[O-].CC(=O)Oc1ccccc1C(=O)[O-].[Cu+2].[Cu+2].c1ccc2ncccc2c1.c1ccc2ncccc2c1 [ASP-4, Cu2(ASP)4(Quinoline)2]	y
C1CCOC1.C1CCOC1.O=C(Oc1ccccc1C(=O)[O-])c1ccccc1O.O=C(Oc1ccccc1C(=O)[O-])c1ccccc1O.O=C(Oc1ccccc1C(=O)[O-])c1ccccc1O.O=C(Oc1ccccc1C(=O)[O-])c1ccccc1O.[Cu+2].[Cu+2].c1ccc(-c2ccncc2)cc1.c1ccc(-c2ccncc2)cc1 [SAS-5, Cu2(SAS)4(4-Phenyl-Pyridine)2(THF)2]	y
CC(=O)Oc1ccccc1C(=O)O [Aspirin(ASP), acetylsalicylic acid, reference compound]	y
CC(=O)Oc1ccccc1C(=O)[O-].CC(=O)Oc1ccccc1C(=O)[O-].NC(=O)c1ccncc1.NC(=O)c1ccncc1.[Cu+2] [ASP-7, Cu(ASP)2(Isonicotinamide)2]	n
Brc1cccnc1.Brc1cccnc1.CC(=O)Oc1ccccc1C(=O)[O-].CC(=O)Oc1ccccc1C(=O)[O-].CC(=O)Oc1ccccc1C(=O)[O-].CC(=O)Oc1ccccc1C(=O)[O-].[Cu+2].[Cu+2] [ASP-3, Cu2(ASP)4(3-Br-Py)2]	y
CC(=O)[O-].CC(=O)[O-].COc1cccc(OC)c1C(=O)[O-].COc1cccc(OC)c1C(=O)[O-].O.O.[Cu+2].[Cu+2] [MC-2, Cu2(CH3COO)2(DMB)2(H2O)2]	n
Cc1ccncc1.Cc1ccncc1.O=C(Oc1ccccc1C(=O)[O-])c1ccccc1O.O=C(Oc1ccccc1C(=O)[O-])c1ccccc1O.[Cu+2] [SAS-8, Cu(SAS)2(4-Me-Pyridine)2]	y
O.O.O=C(Oc1ccccc1C(=O)[O-])c1ccccc1O.O=C(Oc1ccccc1C(=O)[O-])c1ccccc1O.O=C(Oc1ccccc1C(=O)[O-])c1ccccc1O.O=C(Oc1ccccc1C(=O)[O-])c1ccccc1O.[Cu+2].[Cu+2] [SAS-1, Cu2(SAS)4(H2O)2]	y
